Assay: BSK_SAg_Proliferation: Cell Proliferation Assessment in the BioMAP Diversity Plus: SAg Assay (AID 2283095);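 also: relative cell number as total protein by SRB absorbance in sub-confluent culture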
Settings: primary human HUVEC with PBMC
Experimental: BSK_SAg is a cell-based, multiplexed-readout assay that uses umbilical vein endothelium and peripheral blood mononuclear cells, a human vascular primary cell co-culture, with measurements taken at 24 hours after chemical dosing in a 96-well plate.BSK_SAg_Proliferation is an assay component in the BSK_SAg assay. It measures protein content, a form of viability reporter, as detected with absorbance signals by Sulforhodamine staining technology. […]
Calls of active or inactive are those of the source. The calls were made as follows: active = hit-call score of the fitted dose curve at least 0.9, where 1 is the maximum; inactive = score below 0.9.
Outcome codes: active, inactive

>  <molecule>
Cc1[nH]cnc1C[C@H]1CCc2c(C)c3ccccc3n2C1=O

>  <assigned-category>
active

$$$$
>  <molecule>
Fc1ccccc1[C@@H](F)COC1CCC(Nc2ncnc3[nH]ncc23)CC1 (stereo partly drawn)

>  <assigned-category>
active

$$$$
>  <molecule>
CC[C@H](C)C(=O)O[C@H]1C[C@@H](C)C=C2C=C[C@H](C)[C@H](CC[C@@H]3C[C@@H](O)CC(=O)O3)[C@H]21

>  <assigned-category>
active

$$$$
>  <molecule>
CCCCCCCCCCCCCCCO

>  <assigned-category>
active

$$$$
>  <molecule>
Nc1ccc(Nc2ccccc2)cc1

>  <assigned-category>
active

$$$$
>  <molecule>
CCCN(C1CCN(C(=O)C2CCNCC2)CC1)[C@@H]1CCc2ccc(OC)cc2C1

>  <assigned-category>
inactive

$$$$
>  <molecule>
CC(=O)OCCC(C)C

>  <assigned-category>
inactive

$$$$
>  <molecule>
CN(C)c1ccc(N=NS(=O)(=O)O)cc1

>  <assigned-category>
active

$$$$

The origin of these recorded values is PubChem BioAssay (EPA / NIEHS).
